- assay: Theoretical calculation about permeability
- condition_label: not told, pH 6.5, pH 6.5 buffer + 0.05% SLS; read-out: Calculated Papp (converted)
recorded_metric: Papp (×10⁻⁶ cm/s)
Expressed in ×10⁻⁶ cm/s, but write only the number.

Prompt: Can you look up the measured Papp of COC1=CC(=O)C[C@@H](C)[C@]12Oc1c(Cl)c(OC)cc(OC)c1C2=O [Griseofulvin] for me?
Response: 108

Prompt: Item under review: C[C@]12C=CC(=O)C=C1CC[C@H]1[C@@H]3C[C@@H](O)[C@](O)(C(=O)CO)[C@@]3(C)C[C@H](O)[C@@]12F [Triamcinolone] . Reported Papp?
Response: 4.38

----------
- assay: Flux measurements by MicroFlux
- condition_label: not told, pH 6.5, Measured Papp, pH 6.5 buffer + 0.05% SLS, sink conditions, average ± SD (n = 3)
recorded_metric: Papp (×10⁻⁶ cm/s)
Express it in ×10⁻⁶ cm/s; write the number only.

Prompt: Could you tell me which Papp is on file for C[C@]12C=CC(=O)C=C1CC[C@H]1[C@@H]3C[C@@H](O)[C@](O)(C(=O)CO)[C@@]3(C)C[C@H](O)[C@@]12F [Triamcinolone] ?
Response: 4.38

Prompt: Which measured Papp value corresponds to COC1=CC(=O)C[C@@H](C)[C@]12Oc1c(Cl)c(OC)cc(OC)c1C2=O [Griseofulvin] ?
Response: 108

----------
- assay: physchem
- condition_label: 37 °C, pH 6.5, aqueous buffer, thermodynamic from solid
recorded_metric: solubility
Value and unit, in that order.

Prompt: # input compound: COC1=CC(=O)C[C@@H](C)[C@]12Oc1c(Cl)c(OC)cc(OC)c1C2=O ; wanted: its solubility
Response: 10.8 µg/mL

----------
- assay: physchem
- condition_label: 37 °C, pH 6.5, aqueous with cosolvent or surfactant or cyclodextrin, thermodynamic from solid
recorded_metric: solubility (µg/mL)
Express it in µg/mL; write the number only.

Prompt: Name the reported solubility value associated with the compound COC1=CC(=O)C[C@@H](C)[C@]12Oc1c(Cl)c(OC)cc(OC)c1C2=O
Response: 27.4
